biological target: Cyclin-dependent kinase 4/cyclin D (Homo sapiens, UniProt P11802)
measured parameter: IC50 (nM)

[A] COCc1cc2cnc(Nc3ccc(N4CCNCC4)cn3)nc2n(C2CCCC2)c1=O
[B] CCOC(=O)c1c(C)c2cnc(Nc3ccc(N4CCNCC4)cn3)nc2n(C2CCCC2)c1=O
[C] CCc1cc2cnc(Nc3ccc(N4CCNCC4)cn3)nc2n(C2CCCC2)c1=O
Hi! Can you put these in order of IC50, lowest number first? Form entry: labels listed in requested order.
A, C, B
(A: 13 nM, C: 22 nM, B: 49 nM)

###

biological target: Cyclin-dependent kinase 2/cyclin E (Homo sapiens); test: Inhibition of Cyclin dependent kinase 2-cyclin E
pIC50: −log10 of the molar value.
measured parameter: pIC50

Can you share its pIC50? I mean this compound: `O=c1c(Br)cc2cnc(Nc3ccc(N4CCNCC4)cn3)nc2n1C1CCCC1`
< 5.30

###

target: Cyclin-dependent kinase 4/cyclin D (Homo sapiens); experiment: Inhibition of [gamma-32P]-ATP binding to Cyclin dependant kinase 4-cyclinD; type: protein-complex assay
measured parameter: IC50 (µM)
Field: numeric (µM). Do not append units.

Would you mind telling me what IC50 value was observed for `CCOCCOc1cc2cnc(Nc3ccc(N4CCNCC4)cn3)nc2n(C2CCCC2)c1=O` ?
0.037

###

tested on: MDA-MB-468; test: Inhibitory concentration was measured by the incorporation of [14C]thymidine in (human breast carcinoma) MDA-MB-468 cell line; type: functional, cell-based
pIC50: −log10 of the molar value.
Form field: pIC50 (one value per entry).

Look over these answered cases.
{"entry smiles": "O=c1c(Br)cc2cnc(Nc3ccc(N4CCNCC4)cc3)nc2n1C1CCCC1", "experimental target": "MDA-MB-468", "pIC50": 6.22}
{"entry smiles": "O=c1c(Br)cc2cnc(Nc3ccc(N4CCNCC4)cn3)nc2n1C1CCCC1", "experimental target": "MDA-MB-468", "pIC50": "< 5.52"}

With those in mind, consider the next compound.
// returns reported pIC50 for input `CC(=O)c1c(C)c2cnc(Nc3ccc(N4CCNCC4)cn3)nc2n(C2CCCC2)c1=O`
< 5.52

###

The next entries give measured pIC50 for Cyclin-dependent kinase 2/cyclin A (Homo sapiens, UniProt P24941).
pIC50: −log10 of the molar value.

Recorded pIC50 for `CC(=O)c1c(C)c2cnc(Nc3ccc(N4CCNCC4)cc3)nc2n(C2CCCC2)c1=O` with Cyclin-dependent kinase 2/cyclin A (Homo sapiens, UniProt P24941), please?
6.64

Can you look up pIC50 on Cyclin-dependent kinase 2/cyclin A (Homo sapiens, UniProt P24941) for `CCc1cc2cnc(Nc3ccc(N4CCNCC4)cn3)nc2n(C2CCCC2)c1=O` ?
< 5.30

###

test: Inhibition of PDGF receptor
pIC50: −log10 of the molar value.
measured parameter: pIC50

For the compound `O=c1c(Br)cc2cnc(Nc3ccc(N4CCNCC4)cn3)nc2n1C1CCCC1` , what pIC50 is on record?
< 5.30

###

The listing below reports IC50 for molecules tested on Cyclin-dependent kinase 2/cyclin A (Homo sapiens, UniProt P24941).

Look over these answered cases.
{"molecule": "COCCN(CCOC)c1ccc(Nc2ncc3c(C)c(C(C)=O)c(=O)n(C4CCCC4)c3n2)nc1", "test value": "2.05 µM"}
{"molecule": "Nc1cc2cnc(Nc3ccc(N4CCNCC4)cn3)nc2n(C2CCCC2)c1=O", "test value": "> 5 µM"}
{"molecule": "O=c1c(Br)cc2cnc(Nc3ccc(N4CCNCC4)cn3)nc2n1C1CCCC1", "test value": "> 5 µM"}
{"molecule": "CC(=O)c1c(C)c2cnc(Nc3ccc(N4C(C)COCC4C)cn3)nc2n(C2CCCC2)c1=O (stereo unspecified)", "test value": "> 5 µM"}
{"molecule": "Cc1c(Br)c(=O)n(C2CCCC2)c2nc(Nc3ccc(N4CCCNCC4)cn3)ncc12", "test value": "> 5 µM"}

Attention now shifts to the item below.
Form field: IC50 recorded for `COCc1cc2cnc(Nc3ccc(N4CCNCC4)cn3)nc2n(C2CCCC2)c1=O` with Cyclin-dependent kinase 2/cyclin A (Homo sapiens, UniProt P24941) (enter value)
3.8 µM
